This listing pairs binders with measured koff.
Biological target: T1, murine RSPO3 (R&D Systems Cat. No. 4120-RS/CF) (murine, UniProt Q2TJ95 22-277, limits assumed)
T1 construct: also called mouse RSPO3
T1 sequence (looked up): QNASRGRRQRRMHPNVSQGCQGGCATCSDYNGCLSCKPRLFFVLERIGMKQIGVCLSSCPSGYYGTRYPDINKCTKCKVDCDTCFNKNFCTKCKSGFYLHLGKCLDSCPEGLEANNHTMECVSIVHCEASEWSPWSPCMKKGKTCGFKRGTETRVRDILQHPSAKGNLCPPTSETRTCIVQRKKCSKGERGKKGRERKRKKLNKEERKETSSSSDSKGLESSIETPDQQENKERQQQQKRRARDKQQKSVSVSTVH
Assay: SPR (BIAcore T200), RSPO3 immobilized, antibody injected, 25 C, 1:1 Langmuir
Reported property: koff (s⁻¹)

Binder | Reported property | Measured number
chimeric 11C10 (antibody, V domains shown, Chimeric counterpart with the rat 11C10 variable domains) VH: EVQLVESGGGLVQPGRSLKLSCAASGFTFSDYDMAWVRQAPKKGLEWVATIIYDGSRTYYRDSVKGRFTISRANAKSTLYLQMDSLRSEDTATYYCATHDKTFDYWGQGVMVTVSS VL: DIQMTQSPASLSASLGETVTIECRASEDIYSDLAWYQQKPGNSPQLLIYDVNSLIHGVPSRFSGSGSGTQFSLKINNLQSEDVASYFCQQYDNYPNTFGAGTKLELK | koff | 0.00107
anti-RSPO3 antibody 5D6 (WO2015/058132) (antibody, V domains shown) VH: EVQLQESGPSLVKPSQTLSLTCSVTGDSITSGYWNWIRKFPGNKFEYMGYISYSGKTYQNPSLKSRISITRDTSKNQYHLQLNSVTTEDTATYYCATYYGYGGPWFAYWGQGTLVTVSA VL: DIVLTQSPSSMYASLGERVTITCKASQDIDSYLSWFQQKPGKSPKTLIYLTNRLVDGVPSRFSGSGSGQDYSLTISSLEYEDMGIYYCLHYDEFPLTFGAGTKLEIK | koff | 0.000326
